Where a name gives a salt, the structure may show the parent alone.
Let's look at some compounds and their measured melting point.

In [3]: df
Out[3]:
                                   compound         result
0  Cl.O=C(NCCN1CCOCC1)c1ccc2oc(-c3cc4cccn4cn3)cc(=NO)c2c1  230 to 235 °C

melting point for ON=c1cc(-c2ncc3ccccc3n2)oc2ccccc12 ?
239 to 241 °C

melting point for ON=c1cc(-c2cc3cccn3cn2)oc2ccc(OCCn3ccnc3)cc12 (as salt: sodium) ?
> 250 °C (dec.)

melting point for Cl.ON=c1cc(-c2cc3cccn3cn2)oc2ccc(OCCN3CCC(O)C3)cc12 (stereo not shown) ?
> 230 °C (dec.)

melting point for ON=c1cc(-c2cc3cccn3cn2)oc2ccc(OCCOc3ccccc3)cc12 ?
210 to 215 °C

melting point for ON=c1cc(-c2cc3ccccc3cn2)oc2cccc(F)c12 ?
275 to 278 °C

melting point for COCCOCC#Cc1ccc2c(=NO)cc(-c3cc4ccccc4cn3)oc2c1 (mixture of isomers) ?
158 to 160 °C

melting point for ON=c1cc(-c2cc3ccccc3cn2)oc2cc(/C=C/c3ccccc3)ccc12 (mixture of isomers) ?
273 to 276 °C

melting point for ON=c1cc(-c2cc3cccn3cn2)oc2ccc(OCCc3ccc(C(F)(F)F)cc3)cc12 ?
214 to 215 °C

melting point for ON=c1cc(-c2cc3ccccc3cn2)oc2ccc(OC(F)(F)F)cc12 (mixture of isomers) ?
250 to 254 °C

melting point for Cl.OC[C@@H]1CCCN1CCOc1ccc2oc(-c3cc4cccn4cn3)cc(=NO)c2c1 ?
> 220 °C (dec.)

melting point for Cn1ccc2cc(-c3cc(=NO)c4ccccc4o3)ncc21 ?
270 to 275 °C (dec.)

melting point for ON=c1cc(-c2cc3ccccc3cn2)oc2ccc(O)cc12 (mixture of isomers) ?
255 to 260 °C

melting point for ON=c1cc(-c2cc3ccccc3cn2)oc2ccc(Br)cc12 (mixture of isomers) ?
266 to 269 °C

melting point for Cl.ON=c1cc(-c2cc3sccc3cn2)oc2ccc(OCCN3CCC(F)(F)C3)cc12 ?
226 to 229 °C

melting point for ON=c1cc(-c2cc3sccc3cn2)oc2ccccc12 ?
272 to 275 °C

melting point for Cl.ON=c1cc(-c2cc3sccc3cn2)oc2ccc(OCCN3CCCOCC3)cc12 ?
223 to 226 °C

melting point for Nc1cccc(C#Cc2ccc3c(=NO)cc(-c4cc5ccccc5cn4)oc3c2)c1 ?
272 to 275 °C

melting point for Cl.ON=c1cc(-c2cc3sccc3cn2)oc2ccc(OCCCc3ccncc3)cc12 ?
236 to 238 °C

melting point for ON=c1cc(-c2ccc3ccccc3c2)oc2ccccc12 ?
224 to 226 °C

melting point for COc1ccc2cc(-c3cc(=NO)c4ccccc4o3)ncc2c1 ?
239 to 241 °C

melting point for OCCC#Cc1ccc2c(=NO)cc(-c3cc4ccccc4cn3)oc2c1 (mixture of isomers) ?
238 to 240 °C

melting point for Cl.ON=c1cc(-c2cc3cccn3cn2)oc2ccc(OCCN3CCCC(F)(F)C3)cc12 ?
190 to 195 °C

melting point for O=c1[nH]c(-c2c/c(=N\O)c3ccccc3o2)cc2ccccc12 ?
310 to 315 °C (dec.)

###

target: human mGluR4 transiently over-expressed in HEK-293 cells (Homo sapiens); test: Human mGluR4 positive allosteric modulator evaluation using Ca++ functional assay; conditions: HEK-293 cells co-transfected with hmGluR4 and chimeric G protein; EC10 glutamate; intracellular calcium (Fluo4AM); read-out: mean EC50 of agonist/positive allosteric modulator activity on mGluR4
Sequence (Q14833 33-912): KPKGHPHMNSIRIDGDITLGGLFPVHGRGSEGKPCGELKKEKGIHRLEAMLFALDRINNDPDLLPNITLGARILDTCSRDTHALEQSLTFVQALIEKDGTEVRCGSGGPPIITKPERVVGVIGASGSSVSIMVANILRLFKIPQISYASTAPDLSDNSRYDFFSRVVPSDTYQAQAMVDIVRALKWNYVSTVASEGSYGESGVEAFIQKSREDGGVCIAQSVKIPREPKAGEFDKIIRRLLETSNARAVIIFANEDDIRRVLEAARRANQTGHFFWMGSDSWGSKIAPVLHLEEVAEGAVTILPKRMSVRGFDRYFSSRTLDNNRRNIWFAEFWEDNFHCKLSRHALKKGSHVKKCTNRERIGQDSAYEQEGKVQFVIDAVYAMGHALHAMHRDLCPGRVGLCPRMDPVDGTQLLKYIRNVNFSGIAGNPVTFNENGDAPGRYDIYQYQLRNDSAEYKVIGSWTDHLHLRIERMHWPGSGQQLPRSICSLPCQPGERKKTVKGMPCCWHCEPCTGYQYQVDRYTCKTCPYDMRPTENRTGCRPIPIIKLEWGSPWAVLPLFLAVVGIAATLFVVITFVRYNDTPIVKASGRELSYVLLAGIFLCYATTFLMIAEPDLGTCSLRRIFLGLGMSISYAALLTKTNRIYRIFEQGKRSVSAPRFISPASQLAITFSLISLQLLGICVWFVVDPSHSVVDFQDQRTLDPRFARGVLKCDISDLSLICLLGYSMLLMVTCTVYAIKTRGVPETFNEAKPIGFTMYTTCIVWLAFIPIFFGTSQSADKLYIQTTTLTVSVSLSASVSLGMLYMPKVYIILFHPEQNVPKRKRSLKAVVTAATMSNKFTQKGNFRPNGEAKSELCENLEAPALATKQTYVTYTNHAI
Measured Metric: EC50

Answered cases to consult:
In [3]: df
Out[3]:
                                   molecule  measured_metric     result
0  OCCC#Cc1ccc2c(=NO)cc(-c3cc4ccccc4cn3)oc2c1 (mixture of isomers)             EC50  < 5000 nM
1  Cl.ON=c1cc(-c2cc3cccn3cn2)oc2ccc(CCCCN3CCOCC3)cc12 [Example 102, hydrochloride]             EC50  < 1000 nM
2  ON=c1cc(-c2cc3ccccc3cn2)oc2ccc(C(F)(F)F)cc12 (mixture of isomers)             EC50  < 5000 nM

# next molecule below
EC50 for COC[C@H]1CCCN1CCOc1ccc2oc(-c3cc4cccn4cn3)cc(=NO)c2c1.Cl [Example 97, hydrochloride] ?
< 1000 nM

###

Measured Metric: melting point

Answered cases to consult:
In [3]: df
Out[3]:
                                   compound           result
0  CC1CN(CCOc2ccc3oc(-c4cc5sccc5cn4)cc(=NO)c3c2)CC(C)O1.Cl (stereo not shown)    222 to 225 °C
1  COC1CCCN(CCOc2ccc3oc(-c4cc5cccn5cn4)cc(=NO)c3c2)C1.Cl (stereo not shown)    178 to 184 °C
2  COc1cccc(C#Cc2ccc3c(=NO)cc(-c4cc5ccccc5cn4)oc3c2)c1 (mixture of isomers)    248 to 251 °C
3  ON=c1cc(-c2cc3cccn3cn2)oc2ccc(OCCCOc3cccnc3)cc12    202 to 205 °C
4  Cl.ON=c1cc(-c2cc3cccn3cn2)oc2ccc(CNCc3ccc(F)cc3)cc12  > 210 °C (dec.)

melting point for ON=c1cc(-c2cc3ccc(O)cc3cn2)oc2ccccc12 ?
248 to 250 °C

melting point for N#Cc1ccc2c(=NO)cc(-c3cc4ccccc4cn3)oc2c1 ?
279 to 281 °C

melting point for CCN1CCN(CCOc2ccc3oc(-c4cc5cccn5cn4)cc(=NO)c3c2)CC1.Cl.Cl ?
> 240 °C (dec.)

###

Measured Metric: melting point

Answered cases to consult:
>>> df
                                   compound           result
0    ON=c1cc(-c2cc3c(Br)cccc3cn2)oc2ccccc12    268 to 270 °C
1  COc1ccc2c(=NO)cc(-c3cc4ccccc4cn3)oc2c1 (mixture of isomers)    246 to 248 °C
2  Cl.NCCOc1ccc2oc(-c3cc4cccn4cn3)cc(=NO)c2c1  > 270 °C (dec.)
3  ON=c1cc(-c2cc3ccccc3cn2)oc2ccc(F)cc12 (mixture of isomers)    278 to 280 °C

melting point for CN1CCN(CCOc2ccc3oc(-c4cc5ccccc5cn4)cc(=NO)c3c2)CC1 ?
233 to 236 °C

melting point for ON=c1cc(-c2ccncn2)oc2ccccc12 ?
208 to 211 °C

melting point for ON=c1cc(-c2cc3cc(Br)cn3cn2)oc2ccccc12 ?
244 to 245 °C

###

Where a name gives a salt, the structure may show the parent alone.
Let's look at some molecules and their measured melting point.

Answered cases to consult:
In [3]: df
Out[3]:
                                   molecule           result
0  Cl.ON=c1cc(-c2cc3cccn3cn2)oc2ccc(OCCN3CCC(F)(F)C3)cc12  > 230 °C (dec.)
1  Cl.Cl.ON=c1cc(-c2cc3cccn3cn2)oc2ccc(OCCN3CCC(N4CCCC4)CC3)cc12  > 210 °C (dec.)
2  Cc1ccc2oc(-c3cc4ccccc4cn3)cc(=NO)c2c1 (mixture of isomers)    260 to 264 °C
3  Cl.ON=c1cc(-c2cc3cccn3cn2)oc2ccc(OCCNC3CCCC3)cc12  > 230 °C (dec.)
4  Cl.ON=c1cc(-c2cc3sccc3cn2)oc2ccc(OCCN3CCc4ccccc4C3)cc12    234 to 237 °C

melting point for ON=c1cc(-c2cc3ccccc3cn2)oc2ccccc12 (mixture of isomers) ?
247 to 249 °C

melting point for ON=c1cc(-c2cc3sccc3cn2)oc2ccc(OCCc3ccc(F)cc3)cc12 (as salt: hydrochloride) ?
228 to 234 °C

###

Measured Metric: melting point

Answered cases to consult:
In [3]: df
Out[3]:
                                   molecule                result
0  ON=c1cc(-c2cn3cccc3cn2)oc2ccc(OCCc3ccc(F)cc3)cc12         248 to 250 °C
1  ON=c1cc(-c2cc3ccccc3cn2)oc2cc(C#Cc3cccc(O)c3)ccc12 (mixture of isomers)         255 to 259 °C
2  C=CC#Cc1ccc2c(=NO)cc(-c3cc4ccccc4cn3)oc2c1 (mixture of isomers)       > 210 °C (dec.)
3  Cl.ON=c1cc(-c2cc3sccc3cn2)oc2ccc(OCCn3ccnc3)cc12         218 to 220 °C
4  Cc1cc2c(=NO)cc(-c3cc4ccccc4cn3)oc2cc1C#Cc1ccccc1         248 to 250 °C
5      ON=c1cc(-c2cc3cc[nH]c3cn2)oc2ccccc12  270 to 275 °C (dec.)
6  Cc1ccc2cnc(-c3cc(=NO)c4ccccc4o3)cc2c1 (mixture of isomers)         245 to 247 °C
7  COCCOc1ccc2c(=NO)cc(-c3cc4ccccc4cn3)oc2c1 (mixture of isomers)         223 to 225 °C

melting point for ON=c1cc(-c2cc3cccn3cn2)oc2cccc(C(F)(F)F)c12 ?
255 to 257 °C

melting point for CN1CCN(CCCNc2ccc3oc(-c4cc5ccccc5cn4)cc(=NO)c3c2)CC1 ?
208 to 211 °C
